Let's look at some molecules and their measured pIC50.
# System: H460 cell
# assay info: Proliferation assay (crystal violet), H460
# Type: cell-based
# assay setup: Homo sapiens, NCI-H460, 96 h; H460, 4 days incubation; read-out: Inhibition of H460 cell proliferation (activity range) IC50
In simple prose, pIC50 is minus the logarithm base ten of a concentration in moles per litre.

• CCOC(=O)N=S(C)(=O)Cc1cccc(Nc2ncnc(-c3ccc(F)cc3OC)n2)c1 (racemic) = 6.44

# next molecule below
Exercise: For CS(=N)(=O)Cc1cccc(Nc2ncnc(-c3ccc(F)cc3OCc3ccccc3)n2)c1 (racemic) , what is its reported pIC50?
Solution: 6.80

* * *

# Tested on: DU145 cell
# assay info: Proliferation assay (crystal violet), DU145
# Type: cell-based, human
# assay setup: DU145, 4 days incubation; read-out: Inhibition of DU145 cell proliferation IC50
reported property: IC50

Exercise: Kindly state the measured IC50 obtained for COc1cc(F)ccc1-c1ncnc(Nc2cccc(CS(C)(=N)=O)c2)n1 (single isomer, unassigned; (+)) [Compound 4] with DU145 cell.
Solution: 670 nM
